Molecular target: 348 GPCRs (Homo sapiens, UniProt Q9HBX9)
Construct: expressed in transfected cells; host or cells: HEK293A
Sequence (Q9HBX9 1-757): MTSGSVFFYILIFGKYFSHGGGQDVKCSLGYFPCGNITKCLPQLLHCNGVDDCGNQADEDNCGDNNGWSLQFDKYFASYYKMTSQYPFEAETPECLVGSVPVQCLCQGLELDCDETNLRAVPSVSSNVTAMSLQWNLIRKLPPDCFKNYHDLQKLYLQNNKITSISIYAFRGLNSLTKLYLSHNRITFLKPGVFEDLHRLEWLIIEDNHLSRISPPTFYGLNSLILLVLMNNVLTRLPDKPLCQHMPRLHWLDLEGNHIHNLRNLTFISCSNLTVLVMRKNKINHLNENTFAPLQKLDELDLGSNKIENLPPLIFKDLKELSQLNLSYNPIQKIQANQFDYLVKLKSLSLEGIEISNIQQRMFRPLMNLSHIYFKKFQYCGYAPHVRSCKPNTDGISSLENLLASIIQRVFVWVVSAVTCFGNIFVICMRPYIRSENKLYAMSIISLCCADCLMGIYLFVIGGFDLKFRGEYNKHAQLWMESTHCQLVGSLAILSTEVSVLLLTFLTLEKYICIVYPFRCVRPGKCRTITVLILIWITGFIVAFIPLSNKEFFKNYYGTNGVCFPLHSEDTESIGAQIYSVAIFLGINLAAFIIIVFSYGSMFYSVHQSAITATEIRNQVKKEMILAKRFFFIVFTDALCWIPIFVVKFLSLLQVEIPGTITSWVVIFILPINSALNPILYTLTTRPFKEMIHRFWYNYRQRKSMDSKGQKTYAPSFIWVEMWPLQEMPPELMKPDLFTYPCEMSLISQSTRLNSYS
Experiment: TGFα-shedding assay-based GPCR screening with chimeric Gα subunit proteins
Assay type: cell-based
Conditions: RXFP1 (relaxin/insulin-like family peptide receptor 1); 10µM, Favipiravir 100μM
measuredParameter: % GPCR activation compared to TPA

- CC(C)OC(=O)[C@H](C)N[P@](=O)(OC[C@H]1O[C@@H](n2ccc(=O)[nH]c2=O)[C@](C)(F)[C@@H]1O)Oc1ccccc1: 0.4557%
- NC(=O)c1nc(F)cnc1O [favipiravir, 6-fluoro-3-hydroxy-2-pyrazinecarboxamide]: 0.2738%
- N#C[C@@]1(c2ccc3c(N)ncnn23)O[C@H](CO)[C@@H](O)[C@H]1O: -1.093%
- CC(C)C(=O)OC[C@H]1O[C@@H](n2ccc(NO)nc2=O)[C@H](O)[C@@H]1O: -0.9572%
- CCC(CC)COC(=O)[C@H](C)N[P@](=O)(OC[C@H]1O[C@@](C#N)(c2ccc3c(N)ncnn23)[C@H](O)[C@@H]1O)Oc1ccccc1: -0.5639%

---

Molecular target: 348 GPCRs (Homo sapiens)
Assay: TGFα-shedding assay-based GPCR screening with chimeric Gα subunit proteins
Format: cell-based
Conditions: GPCR GPR65 (G protein-coupled receptor 65); 10µM
measuredParameter: % GPCR activation compared to TPA (%)

- CC(C)C(=O)OC[C@H]1O[C@@H](n2ccc(NO)nc2=O)[C@H](O)[C@@H]1O [molnupiravir]: -8.376
- CCC(CC)COC(=O)[C@H](C)N[P@](=O)(OC[C@H]1O[C@@](C#N)(c2ccc3c(N)ncnn23)[C@H](O)[C@@H]1O)Oc1ccccc1 [remdesivir]: -1.387
- CC(C)OC(=O)[C@H](C)N[P@](=O)(OC[C@H]1O[C@@H](n2ccc(=O)[nH]c2=O)[C@](C)(F)[C@@H]1O)Oc1ccccc1 [sofosbuvir]: -10.455
- N#C[C@@]1(c2ccc3c(N)ncnn23)O[C@H](CO)[C@@H](O)[C@H]1O [GS441524]: -3.0793

The reported measurements were obtained from paper PMC10175918.
